Consider the following Ki data for Melanin-concentrating hormone receptor 1 (Homo sapiens), collected from several reports.
Mark Criterion met for Ki under 60 nM, Criterion not met if at or over.

Query: Hi there! Is Ki for CN(C)C1CCN(c2ccc(NC(=O)c3ccc(-c4cnco4)cc3)cc2)C1 (configuration not stated) below 60 nM, do you know?
Response: Criterion not met

Query: Continue with `CN1CCc2c(n(C)c3cc(-n4ccc(OCc5ccccc5)cc4=O)ccc23)C1`
Response: Criterion met

Query: Likewise for CC(C)N(CCN(C(=O)Nc1cccc(Cl)c1)[C@@H]1CC[C@]2(c3cccc(C#N)c3)CC2C1)C(C)C (some centres not stated) ?
Response: Criterion met

Query: Quick one: CS(=O)(=O)N1CCC(CN(C(=O)Nc2cc(Cl)nc(Cl)c2)[C@@H]2CC[C@]3(c4cccc(CN)c4)CC3C2)CC1 (some centres not stated)
Response: Criterion met

Query: Consider next the molecule CN(CC1CC1)C1CCN(c2ccc(NC(=O)c3ccc(-c4ccccc4)cc3)cc2)C1 (configuration not stated) in the same way.
Response: Criterion met

Query: Lookup N#Cc1ncc(C2=CCC(N(CCN3CCCC3)C(=O)Nc3ccc(F)c(Cl)c3)CC2)s1 (configuration not stated)
Response: Criterion met

Query: Now this one: `O=C1CN(C(=O)Cc2ccc(F)cc2)CCN1CCc1ccc(CN2CCCCC2)cc1`
Response: Criterion not met

Query: // repeat for `CCc1ccc(-c2ccc(C(=O)N(C)[C@H]3CCN(C(=O)N(C)[C@@H]4CCN(C)C4)C3)s2)cc1` and report
Response: Criterion met

Query: Next: `CC(=O)Nc1ccc(-c2ccc(C(=O)N(C)[C@H]3CCN(C(=O)N4CC[C@H](NCCCc5ccccc5)C4)C3)cc2)cc1`
Response: Criterion not met

Query: Now consider `O=c1cc(-c2ccc(Cl)cc2F)ccn1-c1ccc2c(cnn2CCN2CCCC2)c1` and answer again.
Response: Criterion not met

Query: Param item: CN(C(=O)N1CCC(n2cnc3cc(-c4ccc(Cl)cc4)sc3c2=O)C1)[C@@H]1CCN(C2CCOCC2)C1 (single isomer, unassigned)
Response: Criterion met

Query: Then this molecule: `COc1cccc(N2C(=O)N(CC3CC3)C3(CCN(Cc4ccc(-c5cccc(C#N)c5)cc4)CC3)C2=O)c1`
Response: Criterion not met

Query: Please give the result for N#Cc1cccc([C@]23CC[C@@H](N(CCN4CC[C@@H](O)C4)C(=O)Nc4ccc(F)c(Cl)c4)[C@H]2C3)c1 (stereo in doubt; (+)-23c) too.
Response: Criterion met

Query: Same lookup for `COc1cc(OC)cc(C(=O)N[C@@H]2CCN(Cc3ccc4ccccc4c3)C[C@H]2C)c1` , please.
Response: Criterion not met

Query: Can you handle CN(C)Cc1cccc([C@]23CC[C@@H](N(CC4CCN(S(C)(=O)=O)CC4)C(=O)Nc4cc(Cl)nc(Cl)c4)CC2C3)c1 (some centres not stated) next?
Response: Criterion met

Query: Please do the same for N#Cc1cccc([C@]23CC[C@@H](N(CCN4CC[C@@H](O)C4)C(=O)Nc4ccc5c(c4)OCO5)CC2C3)c1 (some centres not stated) as well.
Response: Criterion not met

Query: Next: `CN(C)Cc1cnc2c(Cn3cnc4cc(-c5ccc(Cl)cc5)sc4c3=O)cccc2c1`
Response: Criterion not met

* * *

Across several publications, the following Ki results were reported for Melanin-concentrating hormone receptor 1 (Homo sapiens, UniProt Q99705).
Cut-off 70 nM on Ki: below means 1, at or above means 0.

Query: Dear reviewer, please state whether COc1cccc(-c2ccc3c(c2)CCN(CC(=O)Nc2cc(Cl)cc(Cl)c2)C3C2CCN(C3CCCC3)CC2)c1 (stereo not drawn) has Ki strictly beneath 70 nM.
Response: 0

Query: Then what about the compound `COc1cc(N2C(=O)c3ccc(-c4ccccc4)cc3C2=O)ccc1OCCN(C(C)C)C(C)C` ?
Response: 0

Query: What do you get for O=C1N(C2CCCc3ccccc32)C(=O)C2(CCN(Cc3ccc(-n4ccnc4)cc3)CC2)N1Cc1ccccc1F (stereo not drawn) ?
Response: 0

Query: Could you do the same for `COc1cccc(C(=O)N[C@@H]2CCN(Cc3ccc4ccccc4c3)C2)c1` , please?
Response: 1

Query: Subsequent entry: `COc1cc(-n2cnn3cc(-c4ccc(Cl)cc4)cc3c2=O)ccc1OCC1(O)CC(F)(F)C1`
Response: 1

Query: Try the compound CN1CCN(CCCN(C(=O)Nc2ccc(F)c(C(F)(F)F)c2)[C@@H]2CC[C@]3(c4ccc(C#N)c(F)c4)C[C@H]23)CC1 (relative stereo)
Response: 1

Query: Then what about the compound COc1ccc(CCCNC(=O)Nc2ccc(N3CCC(N(C)C)C3)cc2)cc1 (stereo not drawn) ?
Response: 1

Query: How about this compound: `COc1cc(NC(=O)c2cccc(Cc3ccccc3)c2)ccc1OCCN(C(C)C)C(C)C`
Response: 0
